Target: UniProt:P33261
Sequence (P33261 whole entry): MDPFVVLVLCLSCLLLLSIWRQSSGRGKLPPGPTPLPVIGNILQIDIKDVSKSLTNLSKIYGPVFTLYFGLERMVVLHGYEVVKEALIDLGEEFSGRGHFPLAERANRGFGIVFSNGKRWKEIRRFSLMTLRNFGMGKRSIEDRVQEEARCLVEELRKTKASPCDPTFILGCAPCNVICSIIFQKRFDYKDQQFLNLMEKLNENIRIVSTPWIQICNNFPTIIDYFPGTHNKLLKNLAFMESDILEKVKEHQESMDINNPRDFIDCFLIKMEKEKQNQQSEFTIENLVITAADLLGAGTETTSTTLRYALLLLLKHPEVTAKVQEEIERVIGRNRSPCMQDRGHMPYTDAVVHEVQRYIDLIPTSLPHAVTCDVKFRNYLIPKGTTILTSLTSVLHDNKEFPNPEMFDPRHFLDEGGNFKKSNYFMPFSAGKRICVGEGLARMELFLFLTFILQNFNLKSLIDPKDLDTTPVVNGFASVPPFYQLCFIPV
Assay: Cytochrome panel assay with activity outcomes. Panel member name: p450-cyp2c19 Compounds with AC50 equal or less than 10 uM are considered active
Format: functional
Settings: read-out: AC50
measurement label: AC50

Cc1ccc(C(=O)NCCNC(=O)CN2CCOCC2)cc1 :: 0.708 µM (inconclusive)

Identify measured AC50 associated with `COC(=O)[C@@]1(Cc2ccc(OC)cc2)[C@H]2c3cc(C(=O)N(C)C)n(CCc4ccccn4)c3C[C@H]2CN1C(=O)c1ccccc1`
39.8 µM (inconclusive)

Consider the compound `Nc1nn2c(O)cc(-c3ccccc3)nc2c1N=Nc1ccccc1` and give its recorded AC50.
28.2 µM (inconclusive)

Output measured AC50 for this item: Cc1cccc(C(=O)NNC(=O)C2CCCO2)c1 (stereo not given)
5.01 µM (inconclusive)

Query AC50 for `CCOC(=O)N1CCN(C(=O)c2ccc3nc(N4CCC(C)CC4)sc3c2)CC1`
11.2 µM (inconclusive)

Write down AC50 measured for item `COc1cccc(Nc2ncc3nc(C)c(=O)n(-c4ccccc4)c3n2)c1`
25.1 µM (inconclusive)

Supply AC50 value. Item: `CCOC(=O)Cn1nc(C)n(-c2ccc(C)cc2)c1=O`
28.2 µM (inconclusive)

Specify reported AC50 for the compound shown: `Cc1cc(C)c(NC(=O)CSc2nnc(Cc3cccn3C)n2-c2ccc(F)cc2)c(C)c1`
28.2 µM (inconclusive)

# return recorded AC50 for entry `O=C(c1ccccc1)N1CCSC1=S`
25.1 µM (inconclusive)

Consider the compound `c1ccc(-c2n[nH]c(-c3ccccc3)c2-c2nc3ccccc3[nH]2)cc1` . State its measured AC50.
22.4 µM (inconclusive)

Note down AC50 recorded for `Cc1cc(OCCNCCO)cc(C)c1Cl`
7.08 µM (inconclusive)

---

Target: Luciferin 4-monooxygenase (Photinus pyralis, UniProt P08659)
Sequence (P08659 whole entry): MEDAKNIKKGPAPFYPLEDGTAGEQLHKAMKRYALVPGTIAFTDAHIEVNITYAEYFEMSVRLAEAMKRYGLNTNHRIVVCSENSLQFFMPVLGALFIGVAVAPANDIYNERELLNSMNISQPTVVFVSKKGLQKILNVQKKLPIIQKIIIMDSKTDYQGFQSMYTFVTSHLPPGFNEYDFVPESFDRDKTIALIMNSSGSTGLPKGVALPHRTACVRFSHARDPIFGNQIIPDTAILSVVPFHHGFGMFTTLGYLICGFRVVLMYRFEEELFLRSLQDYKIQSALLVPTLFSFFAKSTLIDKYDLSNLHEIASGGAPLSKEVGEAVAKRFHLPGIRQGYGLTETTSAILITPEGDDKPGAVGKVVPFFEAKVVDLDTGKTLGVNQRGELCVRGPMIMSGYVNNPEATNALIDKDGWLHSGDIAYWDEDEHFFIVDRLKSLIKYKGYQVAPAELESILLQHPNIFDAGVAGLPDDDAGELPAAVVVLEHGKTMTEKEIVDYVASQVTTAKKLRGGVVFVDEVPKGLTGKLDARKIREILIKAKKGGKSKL
Assay: inhibition of purified Photinus pyralis luciferase – biochemical, luminescence, dose response (AID 1891)
Activity calls are given as the source filed them.
measurement label: EC50

Below: 8 compounds and their reported EC50.
O=C(COC(=O)/C=C/c1cn(-c2ccccc2)nc1-c1ccc2c(c1)OCCO2)NC1CCS(=O)(=O)C1 (stereo not drawn) :: > 112 µM (not active)
O=C(NCc1ccccc1)/C(NC(=O)c1ccccc1)=C(/Sc1ccccn1)c1ccccc1 :: > 112 µM (not active)
CC1=NN(C(C#N)c2cccc([N+](=O)[O-])c2)C(C)(C)C1 (stereo not drawn) :: > 112 µM (not active)
COc1cc(OC)cc(C(=O)Nc2ccc3c(c2)OCCO3)c1 :: 3.95 µM (active)
CN(C)C(=O)CN1C(=O)C2CC=C(Cl)CC2C1=O (stereo not drawn) :: > 112 µM (not active)
COc1ccc(C(=O)NC2CCSc3ccccc32)cc1 (stereo not drawn) :: > 112 µM (not active)
Cn1c(S)nnc1-c1cnn(-c2ccccc2)c1N :: > 112 µM (not active)
Cc1ccccc1S(=O)(=O)Cc1ccc(C(=O)N2CCN(c3cccc(C)c3C)CC2)o1 :: 28.5 µM (active)

Look up and state reported EC50 for `C/C(=N/NC(=O)C1CCCC1)c1ccc(NC(=O)C(F)(F)F)cc1`
> 112 µM (not active)

Identify measured EC50 associated with CCSc1nnc(NC(=O)C2CC2c2ccccc2)s1 (stereo not drawn)
> 112 µM (not active)

Give a short answer stating reported EC50 for `CC(=O)Oc1ccc(-c2cc3c(OC(C)=O)cc(OC(C)=O)cc3oc2=O)cc1` .
> 112 µM (not active)

Return the recorded EC50 value; entry: Cc1cnc(C(=O)N2CCCC(C(=O)c3ccc(Cl)cc3C)C2)cn1 (stereo not drawn)
> 112 µM (not active)

Please report the measured EC50 for `COC(=O)Cc1c(C)c2ccc(OCC(=O)N3CCC(C)CC3)c(C)c2oc1=O`
> 112 µM (not active)
